Overview of recorded composite z-score for various compounds
# tgt: Alpha-bungarotoxin (Bungarus multicinctus) (UniProt P60615)
# Sequence (P60615 whole entry, looked up): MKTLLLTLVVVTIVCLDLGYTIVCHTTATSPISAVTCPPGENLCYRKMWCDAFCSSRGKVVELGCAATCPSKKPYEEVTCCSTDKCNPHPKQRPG
# procedureDetails: alpha-bungarotoxin binders on microarray, profiling panel, artefact control for SMM control protein annotation, biochemical, small-molecule microarray, Alexa647 label, 635/667 nm fluorescence (AID 1117)
# particulars: alpha-BTX-A647 binding fluorescence, higher = more signal

These solved cases illustrate the format of a correct answer.
O=C1NC(=O)C2C1C=CC(C(O)c1ccc3c(c1)OCO3)N2Nc1ccccn1 (stereo not drawn): 0.498
COCCCNC(=O)[C@@H]1c2ccccc2C(=O)N(Cc2ccccc2C(F)(F)F)[C@H]1c1ccc(CO)cc1: -0.295
CN1C(=O)C2C=CC(C(O)c3c(F)cccc3Cl)N(Nc3ccccc3)C2C1=O (stereo not drawn): 0.904
COC(=O)[C@@]1(Cc2ccc(OC)cc2)[C@H]2c3cc(C(=O)N(C)C)n(Cc4ccccc4)c3C[C@H]2CN1C(=O)c1ccccc1: 0.187
CCOc1cc(C(O)C2C=CC3C(=O)N(C)C(=O)C3N2N2CCCCC2)ccc1O (stereo not drawn): 0.676
O=C1NC(=O)C2C1C=CC(C(O)c1cc(C(F)(F)F)cc(C(F)(F)F)c1)N2Nc1ccc(Cl)cc1Cl (stereo not drawn): 0.526
CCCC[C@@H]1C[C@H]1[C@@H](NC(=O)c1cccnc1)c1ccc(-c2ccccc2)cc1: -0.556

# context switch: different compound, same composite z-score
INPUT: API: value(readout= composite z-score, system= Alpha-bungarotoxin (Bungarus multicinctus) (UniProt P60615), query= C=C(CCCC)/C(=C/C[C@@H](OC(=O)c1ccncc1)c1cccc(OCCO)c1)c1cnc2ccccc2c1 )
OUTPUT: 2.58

* * *

# procedureDetails: basal MM1S mitochondrial membrane potential changes, profiling panel, cell-based, JC-1 fluorescence, 24 h, 100 nL compound (AID 1170); also: test concentration not given here
# particulars: higher = more signal
Use 1 when the recorded z-score is no lower than -1; use -1 when it is lower.

Example results:
COc1cc(CO)cc(I)c1O[C@H]1C=C(C(=O)NCCO)C[C@@H](N(Cc2ccc(F)cc2)C(=O)C2CCCO2)[C@@H]1O (stereo partly specified): 1
C=C(CCCC)/C(=C/C[C@@H](OC(C)=O)c1ccc(CO)o1)c1cc(C(=O)OC)ccc1OC: -1
C=CCOC(=O)[C@H]1[C@@H]2C(=O)O[C@@H](c3ccccc3)[C@@H](c3ccccc3)N2[C@@H](c2ccc(OCCOC(=O)[C@H]3C[C@H]4C(=O)N[C@@H](Cc5ccccc5)C(=O)N4[C@H]3c3ccc(O)cc3)cc2)[C@]12C(=O)Nc1ccc(I)cc12: -1
O=C1O[C@@H](c2ccccc2)[C@@H](c2ccccc2)N2[C@@H](c3ccc(O)cc3)[C@]3(C(=O)Nc4ccc(C#CCCO)cc43)[C@@H](C(=O)Nc3nc4ccccc4s3)[C@H]12: -1
COC(=O)[C@H](Cc1ccccc1)N1CC(/C=C/C2CC2)=C[C@@H]1[C@@H](O)Cc1ccccc1: -1

INPUT: // inclusive: z-score at least -1? input: CC(C)(C)OC(=O)CC[C@]1(C(=O)O)N=C(c2ccc(OCCCO)cc2)O[C@H]1c1ccccc1
OUTPUT: 1

* * *

# procedureDetails: FRG1 promoter luciferase signal modulators, primary screen, FRG1 inhibition for FSHD, cell-based, C2C12 myotubes, firefly/Renilla luciferase, luminescence (AID 1084)
# particulars: higher = more signal, called active from +8 up or from −8 down
Entries are grouped by z-score into these classes: bottom: < 0.07; middle: ≥ 0.07 and < 0.9; top: ≥ 0.9

Worked cases, answers included:
C[C@H]1C2=C3C(CC[C@H]4C(OCc5ccc(F)cc5C(F)(F)F)OC[C@](C)([C@@H]34)N(C(=O)OC(C)(C)C)C2)C2COC(=O)OCC21 (some centres undefined): top
Cc1ccc(S[C@]2(C(=O)NC(C)C)CC(=O)N(C3Cc4ccccc4C3)[C@@H]2c2ccc(CO)cc2I)cc1: bottom
C=CC[C@@H](OC(=O)Nc1ccc(OC)cc1)c1ccc(OCCO)cc1: top
CC(C)C(O)C1C=CC2C(=O)N(C)C(=O)C2N1Nc1ccccc1 (centres undefined): top
CC(C)(C)OC(=O)CC[C@@]1(C(=O)O)N=C(c2ccc(OCCCO)cc2)O[C@@H]1c1ccccc1: middle
CCCCN1CC=CC23O[C@@H]4C=CCOC(=O)[C@@H]4[C@H]2C(=O)N(CCCO)[C@@H]3C1=O (some centres undefined): bottom

Turning now to a further record.
INPUT: Form field 'band' for CC(C)C[C@@H]1NC(=O)[C@H]2C[C@@H](C(=O)NCCCCCC[N+](C)(C)C)[C@@H](c3cccc(OCCO)c3)N2C1=O
OUTPUT: top

* * *

# procedureDetails: basal HepG2 mitochondrial membrane potential changes, profiling panel, cell-based, JC-1 fluorescence, 24 h, 100 nL compound (AID 1167); also: test concentration not given here
# particulars: higher = more signal
quantityKind: z-score
Lab note: record the figure alone, no unit after it.

CC(C)C[C@@H]1NC(=O)[C@H]2C[C@@H](C(=O)NCCCCCC[N+](C)(C)C)[C@@H](c3cccc(OCCO)c3)N2C1=O: -0.474
NC(=O)NCC#Cc1ccc2c(c1)[C@]1(C(=O)N2)[C@H](C(=O)O)[C@H]2C(=O)O[C@H](c3ccccc3)[C@H](c3ccccc3)N2[C@@H]1c1ccccc1OCCO: -0.867
COCCOC(=O)N1C(=O)[C@@]2(c3cc(C#CC4(O)CCCCCC4)ccc31)[C@H](c1ccccc1OCCO)N1[C@H](c3ccccc3)[C@H](c3ccccc3)OC(=O)[C@H]1[C@@H]2C(N)=O: -2.3
C[n+]1ccc(CCCO)cc1: -0.0921
C=CC[C@]1(C(=O)N(C)C)N=C(c2ccc(OCCCO)cc2)O[C@H]1c1ccccc1N=[N+]=[N-]: -0.358

INPUT: Given the compound COCCCNC(=O)[C@]1(Cc2ccccc2N=[N+]=[N-])N=C(c2ccc(OCCCO)cc2)O[C@@H]1c1ccccc1N=[N+]=[N-] , what is its reported z-score?
OUTPUT: -0.892

INPUT: Could you tell me which z-score is on file for O=C1OCC=C[C@H]2OC34C=CCN(c5ccc(Cl)cc5)C(=O)[C@H]3N(CCCCCO)C(=O)[C@@H]4[C@@H]12 (some centres undefined) ?
OUTPUT: -0.26

INPUT: Item under review: O=C1O[C@@H](c2ccccc2)[C@@H](c2ccccc2)N2[C@@H](c3ccc(O)cc3)[C@]3(C(=O)Nc4ccc(C#CC5=CCCCC5)cc43)[C@@H](C(=O)N3CCN(c4ncccn4)CC3)[C@H]12 . Reported z-score?
OUTPUT: -0.703

INPUT: Using the record for CON(C)C(=O)C=C1C[C@@H](c2cccc(Cl)c2)O[C@@H](c2cccc(Cl)c2)O1 , report its z-score.
OUTPUT: 3.67

INPUT: If you can, please state the reported z-score value of CC=CC(O)C1C=CC2C(=O)N(c3ccccc3)C(=O)C2N1Nc1ccccc1 (centres undefined) .
OUTPUT: -0.222

INPUT: I would be grateful if you could share the reported z-score for COCCOC(=O)N1C(=O)[C@@]2(c3cc(C#CCNC(N)=O)ccc31)[C@H](C(=O)N1CCCCCCC1)[C@H]1C(=O)O[C@H](c3ccccc3)[C@H](c3ccccc3)N1[C@@H]2c1ccc(O)cc1 .
OUTPUT: -2.08

INPUT: Any idea what its z-score is? The compound is C=CC[C@]12N=C(c3ccc(OCCCO)cc3)O[C@H]1c1ccccc1N(C)C2=O
OUTPUT: 0.422

INPUT: May I ask what z-score has been recorded for O=C1OC[C@@H](c2ccccc2)N2CC(/C=C/c3ccccc3)=CC12 (some centres undefined) ?
OUTPUT: -0.251

INPUT: Find the recorded z-score belonging to O=C(CS)NCCCCCCNC(=O)[C@@H]1C[C@@H]2C(=O)N3CCC[C@H]3C(=O)N2[C@@H]1c1cccc(OCCO)c1 and report it.
OUTPUT: -0.151

INPUT: Can you share its z-score? I mean this compound: CCOC(=O)C1=CC[C@@H](c2ccc([N+](=O)[O-])cc2)N(S(=O)(=O)c2ccc(C)cc2)[C@H]1c1ccccc1
OUTPUT: 2.35

INPUT: Look at this compound and give its reported z-score. CN(C)CCCCNC(=O)[C@H]1C[C@H]2C(=O)N3CCC[C@H]3C(=O)N2[C@H]1c1ccc(O)cc1
OUTPUT: -0.835

INPUT: Given COCCCNC(=O)[C@]1(CCC(=O)OC(C)(C)C)N=C(c2ccc(OCCCO)cc2)O[C@@H]1c1ccccc1 , state its recorded z-score.
OUTPUT: -0.145

INPUT: Reported z-score for C[C@@H](OCc1ccccc1)C1NC(=O)[C@@]23C(=O)N[C@@H](Cc4ccccc4)C2[C@H](C)[C@@]2(C)O[C@H]2C3/C=C/C/C=C\CNC(=O)CNC1=O (some centres undefined) : what is it?
OUTPUT: -0.332

INPUT: # query: z-score of entry COc1ccc(C#Cc2ccc3c(c2)[C@]2(C(=O)N3)[C@H](C(=O)N3CCc4cc(OC)c(OC)cc4C3)[C@H]3C(=O)O[C@H](c4ccccc4)[C@H](c4ccccc4)N3[C@@H]2c2ccc(O)cc2)cc1
OUTPUT: -1.43

INPUT: Query (compound): O=C1O[C@@H](c2ccccc2)[C@@H](c2ccccc2)N2[C@@H](c3ccc(O)cc3)[C@]3(C(=O)Nc4ccccc43)[C@@H](C(=O)Nc3nc4ccccc4s3)[C@H]12 ; field requested: z-score
OUTPUT: -3.64

INPUT: z-score lookup needed for NC(N)=NCc1cn(CCc2c[nH]c3ccccc23)nn1 , thanks.
OUTPUT: -1.09

INPUT: Could you share which z-score value was measured for CC(C)C(O)C1C=CC2C(=O)N(C)C(=O)C2N1N(c1ccccc1)c1ccccc1 (centres undefined) ?
OUTPUT: -0.0204

Attribution: PubChem BioAssay
